Could you please report measured pIC50 for the items listed next?
ASSAYED SYSTEM: LIM domain kinase 1 (Homo sapiens, UniProt P53667)
Sequence (P53667 whole entry, the tested form may be a part): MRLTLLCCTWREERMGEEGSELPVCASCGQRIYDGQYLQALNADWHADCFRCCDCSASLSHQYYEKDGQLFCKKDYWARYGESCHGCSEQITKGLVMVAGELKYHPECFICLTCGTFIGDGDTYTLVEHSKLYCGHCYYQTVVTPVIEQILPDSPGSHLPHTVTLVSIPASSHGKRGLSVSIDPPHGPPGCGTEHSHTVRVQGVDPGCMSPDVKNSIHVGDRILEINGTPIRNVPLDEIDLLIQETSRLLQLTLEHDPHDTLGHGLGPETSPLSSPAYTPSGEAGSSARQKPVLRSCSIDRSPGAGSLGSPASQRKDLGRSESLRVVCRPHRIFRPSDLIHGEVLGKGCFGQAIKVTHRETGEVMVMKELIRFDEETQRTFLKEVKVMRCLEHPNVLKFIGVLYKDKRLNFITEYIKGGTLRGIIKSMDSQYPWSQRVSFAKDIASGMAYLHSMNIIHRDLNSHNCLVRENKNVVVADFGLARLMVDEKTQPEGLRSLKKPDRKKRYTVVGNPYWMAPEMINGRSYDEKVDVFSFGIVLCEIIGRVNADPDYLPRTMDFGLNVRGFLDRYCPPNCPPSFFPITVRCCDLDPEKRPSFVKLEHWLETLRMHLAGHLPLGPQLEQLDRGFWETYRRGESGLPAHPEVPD
TEST DETAILS: Inhibition of LIMK1 (unknown origin) assessed as ADP formation using cofilin-2 protein as substrate measured after 60 mins incubation with enzyme by Transcreener assay
Answers are plain numbers, as −log10 of the molar value.

SMILES STR: CN1CCN(C(=O)Nc2cccc(-c3ccc4c(c3)sc3c(N)ncnc34)c2)CC1
pIC50: 7.02

SMILES STR: NC(=O)Nc1cccc(-c2ccc3c(c2)sc2c(N)ncnc23)c1
pIC50: 6.84

SMILES STR: CC(C)NC(=O)Nc1cccc(-c2ccc3c(c2)sc2c(N)ncnc23)c1
pIC50: 7.11

SMILES STR: Nc1ncnc2c1sc1cc(-c3cccc(C(=O)NCCc4cccnc4)c3)ccc12
pIC50: 7.01

SMILES STR: NC(=O)c1cccc(-c2ccc3c(c2)sc2c(N)ncnc23)c1
pIC50: 6.92

Count: 3. Required value per item: pIC50.
1. Nc1ncnc2c1sc1cc(-c3cccc(NC(=O)N4CCCC4)c3)ccc12
2. Nc1ncnc2c1sc1cc(-c3cccc(C(=O)NCC(=O)N4CCOCC4)c3)ccc12
3. CCNC(=O)Nc1cccc(-c2ccc3c(c2)sc2c(N)ncnc23)c1

-- reply
[7.02, 7.09, 7.06]

###

ASSAYED SYSTEM: LIM domain kinase 1 (Homo sapiens, UniProt P53667)
TEST DETAILS: Inhibition of LIMK1 (unknown origin) assessed as remaining ATP level using cofilin-2 protein as substrate measured after 60 mins incubation with enzyme by KinaseGlo assay
MEASURED PROPERTY: IC50 (nM)
Give bare numbers, in nM.

# annotated cases, reported IC50 shown
SMILES STR: Nc1ncnc2c1sc1cc(-c3cccc(CO)c3)ccc12
MEASURED PROPERTY: IC50
MEASUREMENT UNITS: nM
MEASURED: 129

SMILES STR: CS(=O)(=O)c1cccc(-c2ccc3c(c2)sc2c(N)ncnc23)c1
MEASURED PROPERTY: IC50
MEASUREMENT UNITS: nM
MEASURED: 361

SMILES STR: COc1ccc(-c2ccc3c(c2)sc2c(N)ncnc23)cc1
MEASURED PROPERTY: IC50
MEASUREMENT UNITS: nM
MEASURED: 204

Count: 6. Required value per item: IC50.
1. COc1cccc(-c2ccc3c(c2)sc2c(N)ncnc23)c1
2. Nc1ncnc2c1sc1cc(-c3ccc(CO)cc3)ccc12
3. CC(=O)c1ccc(-c2ccc3c(c2)sc2c(N)ncnc23)cc1
4. Nc1ncnc2c1sc1cc(-c3cccc(O)c3)ccc12
5. Nc1ncnc2c1sc1cc(-c3ccc(O)cc3)ccc12
6. COc1ccccc1-c1ccc2c(c1)sc1c(N)ncnc12

-- reply
[149, 163, 172, 230, 267, 220]

###

ASSAYED SYSTEM: LIM domain kinase 1 (Homo sapiens)
TEST DETAILS: Inhibition of LIMK1 (unknown origin) assessed as remaining ATP level using cofilin-2 protein as substrate measured after 60 mins incubation with enzyme by KinaseGlo assay
Could you please report measured IC50 for the items listed next?
Give bare numbers, in nM.

# annotated cases, reported IC50 shown
SMILES STR: CS(=O)(=O)c1ccc(-c2ccc3c(c2)sc2c(N)ncnc23)cc1
ASSAYED SYSTEM: LIM domain kinase 1 (Homo sapiens)
MEASURED PROPERTY: IC50
MEASURED: 376

SMILES STR: Nc1ccccc1-c1ccc2c(c1)sc1c(N)ncnc12
ASSAYED SYSTEM: LIM domain kinase 1 (Homo sapiens)
MEASURED PROPERTY: IC50
MEASURED: 310

SMILES STR: Nc1ccc(-c2ccc3c(c2)sc2c(N)ncnc23)cc1
ASSAYED SYSTEM: LIM domain kinase 1 (Homo sapiens)
MEASURED PROPERTY: IC50
MEASURED: 159

SMILES STR: Nc1ncnc2c1sc1cc(-c3ccncc3)ccc12
ASSAYED SYSTEM: LIM domain kinase 1 (Homo sapiens)
MEASURED PROPERTY: IC50
MEASURED: 732

SMILES STR: NC(=O)c1cccc(-c2ccc3c(c2)sc2c(N)ncnc23)c1
ASSAYED SYSTEM: LIM domain kinase 1 (Homo sapiens)
MEASURED PROPERTY: IC50
MEASURED: 120

SMILES STR: Nc1ncnc2c1sc1cc(-c3ccc(-c4nn[nH]n4)cc3)ccc12
ASSAYED SYSTEM: LIM domain kinase 1 (Homo sapiens)
MEASURED PROPERTY: IC50
MEASURED: 127

SMILES STR: Nc1ncnc2c1sc1cc(-c3cccc(NC=O)c3)ccc12
ASSAYED SYSTEM: LIM domain kinase 1 (Homo sapiens)
MEASURED PROPERTY: IC50
MEASURED: 55

SMILES STR: Nc1ncnc2c1sc1cc(-c3cccc(C(=O)O)c3)ccc12
ASSAYED SYSTEM: LIM domain kinase 1 (Homo sapiens)
MEASURED PROPERTY: IC50
MEASURED: 196

SMILES STR: CC(=O)Nc1ccc(-c2ccc3c(c2)sc2c(N)ncnc23)cc1
ASSAYED SYSTEM: LIM domain kinase 1 (Homo sapiens)
MEASURED PROPERTY: IC50
MEASURED: 181

SMILES STR: Nc1ncnc2c1sc1cc(-c3cccc(-c4nn[nH]n4)c3)ccc12
ASSAYED SYSTEM: LIM domain kinase 1 (Homo sapiens)
MEASURED PROPERTY: IC50
MEASURED: 50

As a next step, examine the compound that follows.
Param item: Nc1ncnc2c1sc1cc(-c3cccc(Cl)c3)ccc12 ; param system: LIM domain kinase 1 (Homo sapiens); output IC50: 199
